# Test system: HCV genotype 1b I389Iuc-ubi-neo/NS3-3′/5.1 replicon in Huh5.2 cells
# test_name: microbe, parasite or virus in culture
# Assay type: cell-based, Hepatitis C Virus
reported_property: potency in the Huh5.2 replicon assay (in words)

Challenge: # lookup: potency in the Huh5.2 replicon assay (in words) of C/C=C/CC(C)C(O)C1C(=O)NC(CC)C(=O)N(C)CC(=O)N(C)C(CC(C)C)C(=O)NC(C(C)C)C(=O)N(C)C(CC(C)C)C(=O)NC(C)C(=O)NC(C)C(=O)N(C)C(CC(C)C)C(=O)N(C)C(CC(C)C)C(=O)N(C)C(C(C)C)C(=O)N1C (stereo not drawn) [Cyclosporine A, 1, Cyclosporine A, reference compound]
Response given: less potent

Challenge: # lookup: potency in the Huh5.2 replicon assay (in words) of CC[C@H]1C[C@H](C)[C@@]2(NC1=O)O[C@@H](C[C@H](O)[C@@H](C)CC/C=C/C=C(\C)[C@@H]1C/C=C/C=C/[C@H](O)[C@H](C)[C@@H](O)[C@@H](CCC(C)=O)C(=O)N[C@@H](C(C)C)C(=O)N[C@@H](Cc3ccc(F)c(O)c3)C(=O)N3CCCC(N3)C(=O)O1)[C@H](C)[C@H](O)[C@@H]2C (stereo partly drawn)
Response given: very potent

Challenge: # lookup: potency in the Huh5.2 replicon assay (in words) of CC[C@H]1C[C@H](C)[C@@]2(NC1=O)O[C@@H](C[C@H](O)[C@@H](C)CC/C=C/C=C(\C)[C@@H]1C/C=C/C=C/[C@H](O)[C@H](C)[C@@H](O)[C@@H](CCC(C)=O)C(=O)N[C@@H](C(C)C)C(=O)N[C@@H](Cc3cc(O)c(F)c(F)c3)C(=O)N3CCCC(N3)C(=O)O1)[C@H](C)[C@H](O)[C@@H]2C (stereo partly drawn)
Response given: very potent

Challenge: # lookup: potency in the Huh5.2 replicon assay (in words) of CC[C@H]1C[C@H](C)[C@@]2(NC1=O)O[C@@H](C[C@H](O)[C@@H](C)CC/C=C/C=C(\C)[C@@H]1C/C=C/C=C/[C@H](O)[C@H](C)[C@@H](O)[C@@H](CCC(C)=O)C(=O)N[C@@H](C(C)C)C(=O)N[C@@H](Cc3ccc(C)c(O)c3)C(=O)N3CCCC(N3)C(=O)O1)[C@H](C)[C@H](O)[C@@H]2C (stereo partly drawn)
Response given: very potent

Challenge: # lookup: potency in the Huh5.2 replicon assay (in words) of CC[C@H]1C[C@H](C)[C@@]2(NC1=O)O[C@@H](C[C@H](O)[C@@H](C)CC/C=C/C=C(\C)[C@@H]1C/C=C/C=C/[C@H](O)[C@H](C)[C@@H](O)[C@@H](CCC(C)=O)C(=O)N[C@@H](C(C)C)C(=O)N[C@@H](Cc3cc(O)cc(F)c3)C(=O)N3CCCC(N3)C(=O)O1)[C@H](C)[C@H](O)[C@@H]2C (stereo partly drawn)
Response given: very potent

Further cases:
Challenge: # lookup: potency in the Huh5.2 replicon assay (in words) of CC[C@H]1C[C@H](C)[C@@]2(NC1=O)O[C@@H](C[C@H](O)[C@@H](C)CC/C=C/C=C(\C)[C@@H]1C/C=C/C=C/[C@H](O)[C@H](C)[C@@H](O)[C@@H](CCC(C)=O)C(=O)N[C@@H](C(C)C)C(=O)N[C@@H](Cc3cccc(O)c3)C(=O)N3CCC[C@H](N3)C(=O)O1)[C@H](C)[C@H](O)[C@@H]2C [Sanglifehrin A, 5, Sanglifehrin A, reference compound]
Response given: less potent

###

# Test system: Huh5.2 cells
# test_name: Anti-metabolic effect (MTS) in the replicon cell line
# condition_summary: Huh5.2 cells, 72 hours, MTS metabolic activity
reported_property: CC50 (µM)
Give just the number in µM; leave the unit off.

Challenge: # lookup: CC50 of CC[C@H]1C[C@H](C)[C@@]2(NC1=O)O[C@@H](C[C@H](O)[C@@H](C)CC/C=C/C=C(\C)[C@@H]1C/C=C/C=C/[C@H](O)[C@H](C)[C@@H](O)[C@@H](CCC(C)=O)C(=O)N[C@@H](C(C)C)C(=O)N[C@@H](Cc3cccc(O)c3)C(=O)N3CCC[C@H](N3)C(=O)O1)[C@H](C)[C@H](O)[C@@H]2C [Sanglifehrin A, 5, Sanglifehrin A, reference compound]
Response given: 9.1

###

# test_name: Microsome stability assay, mouse liver microsomes
# Format: in vitro ADME
# condition_summary: pH 7.4; mouse liver microsomes, NADPH, 37° C.
reported_property: half-life at 1 µM (min)
Give just the number in min; leave the unit off.

Challenge: # lookup: half-life at 1 µM of CC[C@H]1C[C@H](C)[C@@]2(NC1=O)O[C@@H](C[C@H](O)[C@@H](C)CC/C=C/C=C(\C)[C@@H]1C/C=C/C=C/[C@H](O)[C@H](C)[C@@H](O)[C@@H](CCC(C)=O)C(=O)N[C@@H](C(C)C)C(=O)N[C@@H](Cc3ccccc3)C(=O)N3CCCC(N3)C(=O)O1)[C@H](C)[C@H](O)[C@@H]2C (stereo partly shown) [Compound 18, 61-Deshydroxy Sanglifehrin A]
Response given: 3.46

###

# System: HCV genotype 1b I389Iuc-ubi-neo/NS3-3′/5.1 replicon in Huh5.2 cells
# test_name: microbe, parasite or virus in culture
# Type: cell-based, Hepatitis C Virus
# condition_summary: Huh5.2 replicon assay
Label scheme for Selectivity index (CC50/EC50): lower than 90 is Condition not met, 90 and above is Condition met.

Worked examples follow.
Challenge: Exam item: decide whether the reported Selectivity index (CC50/EC50) for CC[C@H]1C[C@H](C)[C@@]2(NC1=O)O[C@@H](C[C@H](O)[C@@H](C)CC/C=C/C=C(\C)[C@@H]1C/C=C/C=C/[C@H](O)[C@H](C)[C@@H](O)[C@@H](CCC(C)=O)C(=O)N[C@@H](C(C)C)C(=O)N[C@@H](Cc3cc(O)cc(F)c3)C(=O)N3CCCC(N3)C(=O)O1)[C@H](C)[C@H](O)[C@@H]2C (some centres unmarked) is at least 90.
Response given: Condition met

Challenge: Exam item: decide whether the reported Selectivity index (CC50/EC50) for CC[C@H]1C[C@H](C)[C@@]2(NC1=O)O[C@@H](C[C@H](O)[C@@H](C)CC/C=C/C=C(\C)[C@@H]1C/C=C/C=C/[C@H](O)[C@H](C)[C@@H](O)[C@@H](CCC(C)=O)C(=O)N[C@@H](C(C)C)C(=O)N[C@@H](Cc3ccc(F)c(O)c3)C(=O)N3CCCC(N3)C(=O)O1)[C@H](C)[C@H](O)[C@@H]2C (some centres unmarked) is at least 90.
Response given: Condition not met

Challenge: Exam item: decide whether the reported Selectivity index (CC50/EC50) for CC[C@H]1C[C@H](C)[C@@]2(NC1=O)O[C@@H](C[C@H](O)[C@@H](C)CC/C=C/C=C(\C)[C@@H]1C/C=C/C=C/[C@H](O)[C@H](C)[C@@H](O)[C@@H](CCC(C)=O)C(=O)N[C@@H](C(C)C)C(=O)N[C@@H](Cc3ccc(C)c(O)c3)C(=O)N3CCCC(N3)C(=O)O1)[C@H](C)[C@H](O)[C@@H]2C (some centres unmarked) is at least 90.
Response given: Condition met

We next turn to a different molecule, shown below.
Challenge: Exam item: decide whether the reported Selectivity index (CC50/EC50) for CC(=O)CC[C@H]1C(=O)N[C@@H](C(C)C)C(=O)N[C@@H](Cc2cccc(O)c2)C(=O)N2CCC[C@H](N2)C(=O)O[C@H](/C(C)=C/CO)C/C=C/C=C/[C@H](O)[C@H](C)[C@H]1O [Hydroxymacrocycle, 6, reference compound] is at least 90.
Response given: Condition not met

###

# test_name: Microsome stability assay, mouse liver microsomes
# Assay type: in vitro ADME
# condition_summary: pH 7.4; mouse liver microsomes, NADPH, 37° C.
reported_property: half-life (min)
Give just the number in min; leave the unit off.

Challenge: # lookup: half-life of CC[C@H]1C[C@H](C)[C@@]2(NC1=O)O[C@@H](C[C@H](O)[C@@H](C)CC/C=C/C=C(\C)[C@@H]1C/C=C/C=C/[C@H](O)[C@H](C)[C@@H](O)[C@@H](CCC(C)=O)C(=O)N[C@@H](C(C)C)C(=O)N[C@@H](Cc3ccc(C)c(O)c3)C(=O)N3CCCC(N3)C(=O)O1)[C@H](C)[C@H](O)[C@@H]2C (stereo partly shown) [Compound 17, 62-Methyl Sanglifehrin A]
Response given: 9.67

Challenge: # lookup: half-life of CC[C@H]1C[C@H](C)[C@@]2(NC1=O)O[C@@H](C[C@H](O)[C@@H](C)CC/C=C/C=C(\C)[C@@H]1C/C=C/C=C/[C@H](O)[C@H](C)[C@@H](O)[C@@H](CCC(C)=O)C(=O)N[C@@H](C(C)C)C(=O)N[C@@H](Cc3cc(O)cc(F)c3)C(=O)N3CCCC(N3)C(=O)O1)[C@H](C)[C@H](O)[C@@H]2C (stereo partly shown) [Compound 14, 63-Fluoro Sanglifehrin a]
Response given: 9.78

Challenge: # lookup: half-life of CC[C@H]1C[C@H](C)[C@@]2(NC1=O)O[C@@H](C[C@H](O)[C@@H](C)CC/C=C/C=C(\C)[C@@H]1C/C=C/C=C/[C@H](O)[C@H](C)[C@@H](O)[C@@H](CCC(C)=O)C(=O)N[C@@H](C(C)C)C(=O)N[C@@H](Cc3ccc(F)c(O)c3)C(=O)N3CCCC(N3)C(=O)O1)[C@H](C)[C@H](O)[C@@H]2C (stereo partly shown) [Compound 16, 62-Fluoro Sanglifehrin A]
Response given: 5.48

Challenge: # lookup: half-life of CC[C@H]1C[C@H](C)[C@@]2(NC1=O)O[C@@H](C[C@H](O)[C@@H](C)CC/C=C/C=C(\C)[C@@H]1C/C=C/C=C/[C@H](O)[C@H](C)[C@@H](O)[C@@H](CCC(C)=O)C(=O)N[C@@H](C(C)C)C(=O)N[C@@H](Cc3cc(O)c(F)c(F)c3)C(=O)N3CCCC(N3)C(=O)O1)[C@H](C)[C@H](O)[C@@H]2C (stereo partly shown) [Compound 15, 62,63-Fluoro Sanglifehrin A]
Response given: 9.22
